experimental protocol: folding stability dG unfold from trypsin proteolysis; higher = more stable

input sequence: SMEILEMDIEEILSLLPEDIHPDVPYTLTVPGLEIRILDVAPVREEEGGPRPTTVIEVFLPDGPVVFPLESA [r9_279_TrMRF]
folding stability dG unfold: 0.872 kcal/mol

input sequence: SAGGSAGGSAGGNIKVDDVHHNPNNYRQVKIDLPGGKPIKIWMSMDDPNNVKEIAKEIFSAGGSAGGSAGGS [r10_472_TrROS]
folding stability dG unfold: -0.191 kcal/mol

input sequence: SAGGGVTITASPDGTVTITIGGKPITVPVHPGATLEFRVEPTPDGRPAVTITWTSPDGTPYTFTFTGSAGGS [r16_231_TrMRF]
folding stability dG unfold: 4.23 kcal/mol

input sequence: SAGGMNPDNFKPVRTYTLPFDGHKIEVEVWEPPNGNPLIPIQLEDDNGKPKGPQWIPPDQIDENGKILSAGG [r13_447_TrROS]
folding stability dG unfold: 0.343 kcal/mol

input sequence: SAGGSAGGTFEFFFPDGLYFTVEFRIVEMHPNPGNGQMHMRMEATIKIIPLPPPPPPPKDPGDKSAGGSAGG [r6_939_TrROS]
folding stability dG unfold: 2.71 kcal/mol

input sequence: SAGGSAGGSAGGPDAAPSAVREYVLVTVPVYAENGTPLGPVTVVAPASVSLAAVADAVFNSAGGSAGGSAGG [r7_109_TrMRF]
folding stability dG unfold: 0.292 kcal/mol

input sequence: SAGGSAGGSAGGPKAIVTEVEVEPNTGKARLKVKVYDPVTGKFSEFEVEVETTGKDLNLSAGGSAGGSAGGS [r10_173_TrMRF]
folding stability dG unfold: 1.08 kcal/mol
